System: LU99A
Experiment description: relative viability (nuclei count vs DMSO), 5 days (fraction); higher = more cells survive
Experimental setup: first compound 0.1265 µM
Metric: relative viability
API note: the answer field is a bare number with no unit suffix.

response.value for Clc1ccc(Nc2nnc(Cc3ccncc3)c3ccccc23)cc1 [Vatalanib] + Nc1nc2[nH]cc(CCc3ccc(C(=O)N[C@@H](CCC(=O)O)C(=O)O)cc3)c2c(=O)[nH]1 [Pemetrexed] (partner 0.2 µM) (field: relative viability) = 0.162

Please look at the following molecule next.
response.value for COc1cc(N2CCC(C(N)=O)CC2)ccc1Nc1nc(N)c(Cl)c(Nc2ccccc2S(=O)(=O)C(C)C)n1 [HG-5-88-01] + CCNC(=O)c1noc(-c2cc(C(C)C)c(O)cc2O)c1-c1ccc(CN2CCOCC2)cc1 [Luminespib] (partner 0.01 µM) (field: relative viability) = 0.217
